Cited source: the RNAGym collection of RNA variant scans (doi:10.1073/pnas.2313332121)

B1: TPR 5TU (parent)
chain: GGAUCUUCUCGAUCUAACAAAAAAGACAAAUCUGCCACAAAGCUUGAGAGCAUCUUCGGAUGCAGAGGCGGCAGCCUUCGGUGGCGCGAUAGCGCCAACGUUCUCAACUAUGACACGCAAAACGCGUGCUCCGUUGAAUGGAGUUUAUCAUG

variants of: B1; assay: polymerase ribozyme fitness, log enrichment relative to wild type (log ratio); higher = more active; in vitro selection for triplet polymerase activity
This sample holds only a part of the variants without activity.
Listed variants paired with reported polymerase ribozyme fitness (log ratio)
READOUT_TYPE: polymerase ribozyme fitness (log ratio)

[
  {
    "VARIANT_CODE": "A40C U55A G59C C69U G84A",
    "COMPARATOR": "=",
    "OBSERVED": -2.39
  },
  {
    "VARIANT_CODE": "A24U A52G C69G G70C G88A",
    "COMPARATOR": "≤",
    "OBSERVED": -4.2
  },
  {
    "VARIANT_CODE": "U4A A22C U56A G124U U135C",
    "COMPARATOR": "=",
    "OBSERVED": -3.48
  },
  {
    "VARIANT_CODE": "C27A G58A C76G C99U U101G",
    "COMPARATOR": "≤",
    "OBSERVED": -4.2
  },
  {
    "VARIANT_CODE": "G59C G124A",
    "COMPARATOR": "=",
    "OBSERVED": -1.57
  },
  {
    "VARIANT_CODE": "C99A U101G",
    "COMPARATOR": "=",
    "OBSERVED": -3.16
  },
  {
    "VARIANT_CODE": "A12U A39C A52G C57G",
    "COMPARATOR": "=",
    "OBSERVED": -4.2
  },
  {
    "VARIANT_CODE": "C18U A40U G143C",
    "COMPARATOR": "=",
    "OBSERVED": -2.98
  }
]
